- Test system: Fibrinogen (Alexa647-labelled)
- test_protocol: fibrinogen binders on compound microarrays, profiling panel, artefact control for SMM control-protein annotation, biochemical, small-molecule microarray, 635/667 nm fluorescence (AID 1131);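 also: z-score merges 667 nm fluorescence with per-spot signal-to-noise over triplicate slides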
- stated_conditions: fibrinogen-A647 binding fluorescence, higher = more signal
measured_endpoint: composite z-score
Form: value (number only, do not type unit).

These recorded examples may help you get a feel for the data.
[
  {
    "molecule": "O=C1O[C@@H](c2ccccc2)[C@@H](c2ccccc2)N2[C@@H](c3ccc(OCCO)cc3)[C@]3(C(=O)Nc4ccccc43)[C@@H](C(=O)Nc3nc4ccccc4s3)[C@H]12",
    "composite z-score": 1
  },
  {
    "molecule": "CC(C)NC(=O)[C@@]1(Cc2ccccc2I)c2ccccc2C(=O)N(Cc2ccccc2)[C@H]1c1ccc(CO)cc1",
    "composite z-score": 0.387
  },
  {
    "molecule": "C[C@H]1NC(=O)[C@H](Cc2ccccc2)NC(=O)[C@@]23C(=O)N[C@@H](Cc4ccccc4)C2[C@H](C)[C@@]2(C)O[C@H]2C3/C=C/C/C=C\\CNC1=O (stereo partly drawn)",
    "composite z-score": -1.75
  },
  {
    "molecule": "O=C(CCN1CCOCC1)c1cccc(O)c1",
    "composite z-score": 0.884
  }
]

*Q* Output composite z-score of Cc1cc(C)cc(N2C(=O)CS(=O)(=O)C2c2cccc([N+](=O)[O-])c2)c1 (stereo not drawn)
*A* 0.829

*Q* Output composite z-score of CCOC(=O)C1=CCC(c2ccc(C#N)cc2)N(S(=O)(=O)c2ccc(C)cc2)C1 (stereo not drawn)
*A* 0.824

*Q* Output composite z-score of CCCC[C@H]1OB(O)C[C@H]2C1=C(C)C[C@H]1C(=O)N(Cc3ccccc3)C(=O)[C@H]12
*A* 0.311

*Q* Output composite z-score of COC(=O)c1c(CC[C@@H](CO)NC(=O)N[C@@H](Cc2ccccc2)Cn2cc(C3(O)CCCCC3)nn2)oc(C(C)=O)c1C(=O)OC
*A* 0.307

====

- test_protocol: FRG1 promoter luciferase signal modulators, primary screen, FRG1 inhibition for FSHD, cell-based, C2C12 myotubes, firefly/Renilla luciferase, luminescence (AID 1084)
- stated_conditions: higher = more signal, called active from +8 up or from −8 down
measured_endpoint: z-score
Form: value (number only, do not type unit).

*Q* Output z-score of O=C(OCCF)C1=CCC(c2cccc(Cl)c2)O1 (stereo unspecified)
*A* -1.68

====

Listed below: z-score values for each entry.
- test_protocol: MM1S myeloma cell viability, profiling panel, resazurin fluorescence, basal, 24 h, PK04 Diversity Set (AID 1174);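 also: MM1S multiple myeloma cell line; test concentration not given here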
- stated_conditions: higher = more signal, called active from +8 up or from −8 down
Active and inactive are the calls of the source.

These recorded examples may help you get a feel for the data.
[
  {
    "compound": "N#Cc1ccc(NN2C(C(O)C3CCCCC3)C=CC3C(=O)N(c4ccccc4)C(=O)C32)cc1 (centres undefined)",
    "reported_result": "-0.668 (inactive)"
  },
  {
    "compound": "NCCCCCNC(=O)[C@H]1C[C@H]2C(=O)NCC(=O)N2[C@H]1c1cccc(OCCO)c1",
    "reported_result": "0.998 (inactive)"
  },
  {
    "compound": "CN1CCC(CCCO)=CC1c1ccc(CN2CCCC2)cc1 (centres undefined)",
    "reported_result": "-0.202 (inactive)"
  },
  {
    "compound": "CC(C)C(=C=CC[C@@H](O)c1ccccc1OCCO)C[C@@H](O)c1ccccn1",
    "reported_result": "0.0716 (inactive)"
  },
  {
    "compound": "CCOC(=O)C[C@H]1[C@H](OC(=O)c2ccccc2-c2ccccc2)[C@@H](NC(=O)c2ccc3ccccc3c2)c2cc(OCCCO)ccc2N1C(=O)c1ccc2ccccc2n1",
    "reported_result": "0.288 (inactive)"
  }
]

*Q* Output z-score of CC(=O)Nc1cc(Br)ccc1C(=O)O
*A* 0.161 (inactive)

*Q* Output z-score of COc1ccc([Si](C)(C)[C@H]2[C@H](CCn3cc(CCO)nn3)O[C@@]3(C(=O)N(Cc4ccc(N5CCOC5=O)cc4)c4ccccc43)[C@@H]2C)cc1
*A* -2.57 (inactive)

====

- test_protocol: anti-His antibody binders, primary screen, artefact control for SMM control protein annotation, biochemical, small-molecule microarray, 635 nm fluorescence (AID 1128);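 also: score merges feature fluorescence with signal-to-noise for each printed compound spot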
- stated_conditions: anti-His Alexa647 antibody binding, higher = more signal
Listed below: composite z-score values for each entry.
Form: value (number only, do not type unit).

These recorded examples may help you get a feel for the data.
[
  {
    "compound": "CC(C)(C)N1CC=CC23O[C@@H]4/C=C\\CCCOC(=O)C4[C@H]2C(=O)N(CCO)[C@@H]3C1=O (some centres not stated)",
    "composite z-score": 0.543
  },
  {
    "compound": "COc1ccc(C#Cc2ccc3c(c2)[C@]2(C(=O)N3)[C@H](C(=O)NC[C@H](O)c3ccccc3)[C@H]3C(=O)O[C@H](c4ccccc4)[C@H](c4ccccc4)N3[C@@H]2c2ccc(OCCO)cc2)cc1",
    "composite z-score": 0.408
  },
  {
    "compound": "O=C1OCC=C[C@H]2OC34C=CCN(c5ccc6ccccc6c5)C(=O)[C@H]3N(CCCO)C(=O)[C@@H]4[C@@H]12 (some centres not stated)",
    "composite z-score": -0.349
  },
  {
    "compound": "NC(=O)NCC#Cc1ccc2c(c1)[C@]1(C(=O)N2)[C@H](C(=O)N2CCCCCCC2)[C@H]2C(=O)O[C@H](c3ccccc3)[C@H](c3ccccc3)N2[C@@H]1c1ccc(OCCO)cc1",
    "composite z-score": -0.132
  },
  {
    "compound": "CCC[C@@H]1C=C(C(=O)O)[C@H](c2ccc(C)cc2)N1S(=O)(=O)c1ccc(C)cc1",
    "composite z-score": 1.65
  },
  {
    "compound": "COc1ccc(C(O)C2C=CC3C(=O)N(C)C(=O)C3N2Nc2ccccc2)cc1OCc1ccccc1 (configuration not stated)",
    "composite z-score": 1.05
  }
]

Now take the following compound into account.
*Q* Output composite z-score of COc1ccc(CCN2C(=O)[C@@]3(Cc4ccccc42)c2ccccc2C(=O)N(Cc2ccccc2Cl)[C@H]3c2ccc(CO)cc2)cc1
*A* -1.74

====

Listed below: composite z-score values for each entry.
- test_protocol: small-molecule microarray binders of probe aEGFR, primary screen, biochemical, biotinylated probe, 635/667 nm fluorescence (AID 1097);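 also: probe is a biotinylated anti-EGFR antibody binding compounds printed on slides; score combines fluorescence near 667 nm and signal to noise of each spot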
- stated_conditions: higher = more signal
Form: value (number only, do not type unit).

[
  {
    "molecule": "CC(C)N1C(=O)C[C@@](C(=O)NCc2ccccc2)(c2ccc([N+](=O)[O-])cc2)[C@H]1c1ccc(CO)cc1",
    "reported_result": -0.167
  },
  {
    "molecule": "CC(C)(C)N1CC=CC23O[C@@H]4/C=C\\CCCOC(=O)C4[C@H]2C(=O)N(CCO)[C@@H]3C1=O (stereo partly drawn)",
    "reported_result": -0.272
  },
  {
    "molecule": "O=C(O)[C@@]1(Cc2ccccc2)N=C(c2ccc(OCCCO)cc2)O[C@H]1c1ccccc1",
    "reported_result": -0.184
  }
]

Now take the following molecule into account.
*Q* Output composite z-score of NCCCCCNC(=O)[C@H]1C[C@H]2C(=O)NCC(=O)N2[C@H]1c1cccc(OCCO)c1
*A* 0.0311

====

- test_protocol: small-molecule microarray binders of probe aCHRDL2, primary screen, biochemical, biotinylated probe, 635/667 nm fluorescence (AID 1100)
- stated_conditions: higher = more signal
Entries get a class label from measured composite z-score. See ranges: bin A: < 0.2; bin B: ≥ 0.2 and < 0.9; bin C: ≥ 0.9

Solved entries (count: 2):
[
  {
    "compound": "Cc1cc(C)c(C(O)C2C=CC3C(=O)N(c4ccccc4)C(=O)C3N2Nc2ccc(C#N)cc2)c(C)c1 (stereo unspecified)",
    "classification": "bin C"
  },
  {
    "compound": "CN(C)C(=O)[C@@]1(CCC(=O)OC(C)(C)C)N=C(c2ccc(OCCCO)cc2)O[C@H]1c1ccccc1",
    "classification": "bin B"
  }
]

*Q* # bin lookup: classify O=C1C=CC(=O)[C@@H]2CC(COc3ccccc3)=C3[C@@H](CCc4ccccc4)OB(O)C[C@@H]3[C@H]12 by its composite z-score
*A* bin A

*Q* # bin lookup: classify C=C[C@@H](COC(C)=O)N(Cc1ccc([N+](=O)[O-])cc1)S(=O)(=O)c1ccc(Br)cc1 by its composite z-score
*A* bin C

*Q* # bin lookup: classify COc1ccc([Si](C)(C)[C@@H]2[C@@H](CCn3cc([C@H](O)c4ccccc4)nn3)O[C@]3(C(=O)N(Cc4ccc(N5C(=O)c6cccc7cccc5c67)cc4)c4ccccc43)[C@H]2C)cc1 by its composite z-score
*A* bin A

*Q* # bin lookup: classify CC(C)(C)OC(=O)CC[C@@]1(C(=O)O)N=C(c2ccc(OCCCO)cc2)O[C@@H]1c1ccccc1N=[N+]=[N-] by its composite z-score
*A* bin C

*Q* # bin lookup: classify CC(C)N1CC=CC23O[C@@H]4C=CCOC(=O)[C@@H]4[C@H]2C(=O)N(CCO)[C@@H]3C1=O (stereo partly specified) by its composite z-score
*A* bin B

*Q* # bin lookup: classify COc1cc(CO)ccc1OC(C)=O by its composite z-score
*A* bin A
